- measured_on: CFTR-mediated chloride transport in human intestinal epithelial enteroid cells (Homo sapiens)
- test_protocol: Membrane potential dye, Enteroid Assay A
- Type: cell-based
- experimental_conditions: % of chloride transport of triple combination control: 3 μM (S)-N-((6-aminopyridin-2-yl)sulfonyl)-6-(3-fluoro-5-isobutoxyphenyl)-2-(2,2,4-trimethylpyrrolidin-1-yl)nicotinamide, 3 μM tezacaftor, 300 nM acute ivacaftor
readout: Ent. A Max Activity

# compound, Ent. A Max Activity
rows = [
    ("Cc1cccc(C)c1-c1cc2nc(n1)NS(=O)(=O)c1cccc(c1)C(=O)OCC(CCC1(C(F)(F)F)CC1)N2CCC1CCOCC1 (stereo not drawn)", "+++ (+++ is >60%)"),
    ("Cc1cccc(C)c1-c1cc2nc(n1)NS(=O)(=O)c1cccc(c1)C(=O)O[C@H](c1ccc(C(C)(C)C)cn1)[C@@H](CC(C)C)N2C", "++ (++ is 30-60%)"),
    ("Cc1cccc(C)c1-c1cc2nc(n1)NS(=O)(=O)c1cccc(c1)C(=O)N[C@H](C)CN2Cc1ccccc1", "+ (+ is <30%)"),
    ("Cc1cccc(C)c1-c1cc2nc(n1)NS(=O)(=O)c1cccc(c1)C(=O)OCC(CCC1(C(F)(F)F)CC1)N2Cc1ccccc1 (stereo not drawn)", "++ (++ is 30-60%)"),
]

Quick batch: Ent. A Max Activity for everything below.
1. Cc1cccc(C)c1-c1cc2nc(n1)NS(=O)(=O)c1ccccc1C(=O)O[C@H](c1ccc(C(C)(C)C)cc1)[C@@H](C)N2
2. Cc1cccc(C)c1-c1cc2nc(n1)NS(=O)(=O)c1cccc(c1)C(=O)OCC[C@@H](c1ccccc1)N2

Response line:
1: + (+ is <30%); 2: +++ (+++ is >60%)

====

- measured_on: CFTR-mediated chloride transport in human intestinal epithelial enteroid cells (Homo sapiens, UniProt P13569)
- Sequence (P13569 with tags, fused parts or gaps DEL508-508): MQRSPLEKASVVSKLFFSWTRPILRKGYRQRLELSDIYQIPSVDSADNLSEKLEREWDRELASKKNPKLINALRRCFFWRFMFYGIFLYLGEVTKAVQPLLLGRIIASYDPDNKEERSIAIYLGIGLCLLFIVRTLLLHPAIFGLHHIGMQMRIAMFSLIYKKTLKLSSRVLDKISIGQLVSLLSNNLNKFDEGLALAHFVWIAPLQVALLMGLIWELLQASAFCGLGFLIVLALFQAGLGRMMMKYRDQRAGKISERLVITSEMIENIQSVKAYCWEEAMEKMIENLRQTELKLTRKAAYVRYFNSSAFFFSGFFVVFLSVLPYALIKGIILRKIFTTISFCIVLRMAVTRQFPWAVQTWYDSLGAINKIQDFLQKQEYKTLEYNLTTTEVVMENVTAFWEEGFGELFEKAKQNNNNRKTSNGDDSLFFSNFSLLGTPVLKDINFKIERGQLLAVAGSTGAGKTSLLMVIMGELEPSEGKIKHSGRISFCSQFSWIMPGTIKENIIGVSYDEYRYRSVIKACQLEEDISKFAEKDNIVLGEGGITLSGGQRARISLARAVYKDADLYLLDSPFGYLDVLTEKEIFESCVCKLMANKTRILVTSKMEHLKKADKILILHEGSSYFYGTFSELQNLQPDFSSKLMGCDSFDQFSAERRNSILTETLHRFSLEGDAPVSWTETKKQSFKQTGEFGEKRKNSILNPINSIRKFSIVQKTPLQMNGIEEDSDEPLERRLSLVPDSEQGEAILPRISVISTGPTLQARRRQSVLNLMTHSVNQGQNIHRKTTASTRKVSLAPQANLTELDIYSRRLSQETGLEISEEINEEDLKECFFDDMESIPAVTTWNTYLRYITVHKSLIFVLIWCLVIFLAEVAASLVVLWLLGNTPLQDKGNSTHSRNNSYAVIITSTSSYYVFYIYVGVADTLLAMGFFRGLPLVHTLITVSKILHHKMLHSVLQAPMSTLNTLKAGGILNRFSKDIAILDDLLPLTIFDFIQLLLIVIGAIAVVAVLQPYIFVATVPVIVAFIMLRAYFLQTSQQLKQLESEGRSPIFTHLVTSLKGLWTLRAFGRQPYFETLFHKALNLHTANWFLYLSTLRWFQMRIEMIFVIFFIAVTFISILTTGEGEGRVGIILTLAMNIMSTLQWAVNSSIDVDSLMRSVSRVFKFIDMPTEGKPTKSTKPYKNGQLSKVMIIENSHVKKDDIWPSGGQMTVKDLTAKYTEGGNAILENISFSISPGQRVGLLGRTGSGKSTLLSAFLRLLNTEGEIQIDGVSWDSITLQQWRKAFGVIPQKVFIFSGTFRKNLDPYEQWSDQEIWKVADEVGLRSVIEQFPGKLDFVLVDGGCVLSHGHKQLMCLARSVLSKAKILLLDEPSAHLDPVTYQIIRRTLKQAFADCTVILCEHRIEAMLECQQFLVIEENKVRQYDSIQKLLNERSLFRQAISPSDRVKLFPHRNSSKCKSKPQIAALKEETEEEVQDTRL
- test_protocol: Membrane potential dye, Enteroid Assay B
- Assay type: cell-based
- experimental_conditions: enteroid cells, 18-24 hours incubation; acute 10 μM forskolin and 300 nM ivacaftor; read-out: Ent. B EC50
pEC50: −log10 of the molar value.
readout: pEC50

Below: 2 molecules and their reported pEC50.
# structure_smiles, pEC50
measured = [
    ("COCCN1CCC2(CC1)CC(N1C(=O)c3cccc(c3)S(=O)(=O)Nc3nc(cc(-c4c(C)cccc4C)n3)CC[C@H]1CC(C)C)C2", "> 6.00"),
    ("Cc1cccc(C)c1-c1cc2nc(n1)NS(=O)(=O)c1cccc(n1)C(=O)N(C1CC3(CC3)C1)[C@H](CC(C)C)CC2", "> 6.00"),
]

Prompt line: What value of pEC50 has been reported for the following molecule? Cc1cccc(C)c1-c1cc2nc(n1)NS(=O)(=O)c1cccc(c1)C(=O)N(C1CC3(CC3)C1)CC[C@H]2c1ccc(C(C)(C)C)cc1
Response line: > 6.00

====

- measured_on: CFTR-mediated chloride transport in human intestinal epithelial enteroid cells (Homo sapiens, UniProt P13569)
- test_protocol: Membrane potential dye, Enteroid Assay B
- Type: cell-based
- experimental_conditions: enteroid cells, 18-24 hours incubation; acute 10 μM forskolin and 300 nM ivacaftor; read-out: Ent. B EC50
- Experimental: Base medium (ADF+++) consisted of Advanced DMEM/Ham's F12, 2 mM Glutamax, 10 mM HEPES, […] penicillin/streptomycin. […] Enteroid cells were incubated with test compound in IEMM for 18-24 hours at 37° C., 95% humidity, and 5% C02. […] Chloride transport was initiated by addition of Chloride Free Dye Stimulation Solution and the fluorescence signal was read for 15 minutes. […]
readout: EC50

Recorded EC50, per entry:
# compound, measured_value
rows = [
    ("Cc1cccc(C)c1-c1cc2nc(n1)NS(=O)(=O)c1cccc(c1)C(=O)N(C1CC3(CC3)C1)[C@H](CC1(C(F)(F)F)CC1)CC2", "< 1000 nM"),
    ("Cc1cccc(C)c1-c1cc2nc(n1)NS(=O)(=O)c1cccc(c1)C(=O)NCCC2c1ccc(C(C)(C)C)cc1 (centres unmarked)", "< 1000 nM"),
    ("Cc1cccc(C)c1-c1cc2nc(n1)NS(=O)(=O)c1cccc(c1)C(=O)N(C1CC3(CC3)C1)CCC2c1ccc(C(C)(C)C)cc1 (centres unmarked)", "< 1000 nM"),
    ("Cc1cccc(C)c1-c1cc2nc(n1)NS(=O)(=O)c1cccc(c1)C(=O)N(C1CC3(CC3)C1)CCC21CC1", "< 1000 nM"),
    ("Cc1cccc(C)c1-c1cc2nc(n1)NS(=O)(=O)c1cccc(c1)C(=O)N(C1CC3(CC3)C1)CC2Cc1ccc(C(C)(C)C)cc1 (centres unmarked)", "< 1000 nM"),
    ("Cc1cccc(C)c1-c1nc2nc(c1F)CC[C@@H](CC(C)C)N(C1CC3(CC3)C1)C(=O)c1cccc(c1)S(=O)(=O)N2", "< 1000 nM"),
    ("Cc1cccc(C)c1-c1cc2nc(n1)NS(=O)(=O)c1cccc(c1)C(=O)N(Cc1ncccn1)CCC2C (centres unmarked)", "1000 to 3000 nM"),
    ("Cc1cccc(C)c1-c1cc2nc(n1)NS(=O)(=O)c1cccc(c1)C(=O)N(CCCC(C)(C)O)CCC2C (centres unmarked)", "1000 to 3000 nM"),
    ("Cc1cccc(C)c1-c1cc2nc(n1)NS(=O)(=O)c1cccc(c1)C(=O)N(C)CCC2C (centres unmarked)", "1000 to 3000 nM"),
    ("Cc1cccc(C)c1-c1cc2cc(n1)NS(=O)(=O)c1cccc(c1)C(=O)N(C1CC3(CC3)C1)[C@H](CC(C)C)CC2", "< 1000 nM"),
]

Go through the list and state EC50 for each entry.
1. Cc1cccc(C)c1-c1cc2nc(n1)NS(=O)(=O)c1cccc(c1)C(=O)N(C1CC3(CC3)C1)[C@H](CC(C)C)CC2
2. Cc1cccc(C)c1-c1cc2nc(n1)NS(=O)(=O)c1cccc(c1)C(=O)N[C@H](CC(C)C)CC2
3. Cc1cccc(C)c1-c1cc2nc(n1)NS(=O)(=O)c1cccc(c1)C(=O)N(C1CC3(CC3)C1)CCC2C (centres unmarked)
4. Cc1cccc(C)c1-c1cc2nc(n1)NS(=O)(=O)c1cccc(c1)C(=O)N(Cc1ccc(C(C)(C)O)cc1)CCC2C (centres unmarked)

Response line:
< 1000 nM
< 1000 nM
1000 to 3000 nM
< 1000 nM
